- Test system: HIV-1 reverse transcriptase (Human immunodeficiency virus 1)
- PROCEDURE_SUMMARY: Compound was tested for HIV-1 RT inhibition in in vitro assay;IA means inactive
Active and inactive are the calls of the source. No cut-off for these calls is given here.
MEASUREMENT_NAME: inhibition

- Cc1cn([C@H]2C[C@H](CO)C(CO)(CO)O2)c(=O)[nH]c1=O: inactive
- Nc1ccn([C@H]2C[C@H](CO)C(CO)(CO)O2)c(=O)n1: inactive
- Cc1cn([C@@H]2C[C@H](CO)C(CO)(CO)O2)c(=O)[nH]c1=O: inactive
- Nc1ccn([C@@H]2C[C@H](CO)C(CO)(CO)O2)c(=O)n1: inactive

Value source: ChEMBL document CHEMBL1128139
